- experimental-system: human GIPR (Homo sapiens, UniProt P48546)
- Construct: expressed in transfected cells
- Sequence (P48546 22-466): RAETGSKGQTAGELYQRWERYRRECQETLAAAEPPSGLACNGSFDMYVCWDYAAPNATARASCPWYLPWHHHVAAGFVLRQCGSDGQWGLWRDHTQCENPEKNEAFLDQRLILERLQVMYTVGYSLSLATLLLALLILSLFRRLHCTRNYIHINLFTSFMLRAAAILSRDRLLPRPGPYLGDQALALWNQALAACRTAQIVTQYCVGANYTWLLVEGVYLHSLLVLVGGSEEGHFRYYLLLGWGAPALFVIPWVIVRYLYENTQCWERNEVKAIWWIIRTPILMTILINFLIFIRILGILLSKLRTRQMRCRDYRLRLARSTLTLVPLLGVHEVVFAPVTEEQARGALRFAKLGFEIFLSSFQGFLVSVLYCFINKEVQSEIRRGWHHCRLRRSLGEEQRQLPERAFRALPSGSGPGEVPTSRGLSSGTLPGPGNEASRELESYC
- assay-comment: Agonist activity on human GIPR, CRE-luciferase reporter assay (increase in intracellular cAMP as indicator)
- Format: cell-based
- condition-parameters: GLP1R EC50 / GIPR EC50
endpoint-label: Selectivity Ratio (B/A)

Below, 3 substances whose answers are already recorded.
# substance, Selectivity Ratio (B/A)
records = [
    ("YD-AlaEGTFISDYSIAMD(Lys-(OEG-gGlu)2-Oda)IHQQDFVNWLLAQKGKICNDWKHNIIQ-NH2 [Compound 13]", "21,369"),
    ("YAibEGTFISDYSIALDK(Lys-(ethylene glycol)2-C15 diacid)HQQDFVNWLLAQRG-OH [Compound 26]", ">100,000"),
    ("YAibEGTFISDYSIELDK(Lys-(ethylene glycol)2-C15 diacid)AAQAFIEWLLAQGPSSGAPPPS-NH2 [Compound 20]", ">100,000"),
]

Now take the following substance into account.
Ask: Looking for the measured Selectivity Ratio (B/A) of YAibEGTFISDYSIALDKIHQQ(Lys-(ethylene glycol)2-C15 diacid)FVNWLLAQRPSSGAPPPS-NH2 [Compound 29] , can you help?
Result: >100,000
